Every entry's value here was drawn from ChEMBL document CHEMBL5537166.

# System: NCI-H1944
# ASSAY_METHOD_TEXT: Antiproliferative activity against BRM-dependent human NCI-H1944 cells assessed as growth inhibition incubated for 7 days by celltiter glo 2.0 assay
# Assay type: functional
# CONDITION_INFO: NCI-H1944, 168 h, time 7 day
Please provide measured GI50 for the entries that follow.

Give the reported GI50 for Cc1ncsc1-c1ccc([C@H](C)NC(=O)[C@@H]2C[C@@H](O)CN2C(=O)[C@@H](c2cc(N3CCC(CN4CCC(O[C@H]5C[C@H](Oc6cc(N7C8CCC7CN(c7cc(-c9ccccc9O)nnc7N)C8)ccn6)C5)CC4)CC3)no2)C(C)C)cc1 (system: NCI-H1944).
0.58 nM

Give the reported GI50 for Cc1ncsc1-c1ccc([C@H](C)NC(=O)[C@@H]2C[C@H](O)CN2C(=O)[C@@H](c2cc(N3CCC(CN4CCC(O[C@H]5C[C@H](Oc6cc(N7C8CCC7CN(c7cc(-c9ccccc9O)nnc7N)C8)ccn6)C5)CC4)CC3)no2)C(C)C)cc1 (system: NCI-H1944).
> 300 nM

====

Please provide measured DC50 for the entries that follow.
# TARGET_OF_ASSAY: von Hippel-Lindau disease tumor suppressor/SWI/SNF-related matrix-associated actin-dependent regulator of chromatin subfamily A member 4 (Homo sapiens, UniProt P51532+P40337)
# Sequence (P51532 whole entry): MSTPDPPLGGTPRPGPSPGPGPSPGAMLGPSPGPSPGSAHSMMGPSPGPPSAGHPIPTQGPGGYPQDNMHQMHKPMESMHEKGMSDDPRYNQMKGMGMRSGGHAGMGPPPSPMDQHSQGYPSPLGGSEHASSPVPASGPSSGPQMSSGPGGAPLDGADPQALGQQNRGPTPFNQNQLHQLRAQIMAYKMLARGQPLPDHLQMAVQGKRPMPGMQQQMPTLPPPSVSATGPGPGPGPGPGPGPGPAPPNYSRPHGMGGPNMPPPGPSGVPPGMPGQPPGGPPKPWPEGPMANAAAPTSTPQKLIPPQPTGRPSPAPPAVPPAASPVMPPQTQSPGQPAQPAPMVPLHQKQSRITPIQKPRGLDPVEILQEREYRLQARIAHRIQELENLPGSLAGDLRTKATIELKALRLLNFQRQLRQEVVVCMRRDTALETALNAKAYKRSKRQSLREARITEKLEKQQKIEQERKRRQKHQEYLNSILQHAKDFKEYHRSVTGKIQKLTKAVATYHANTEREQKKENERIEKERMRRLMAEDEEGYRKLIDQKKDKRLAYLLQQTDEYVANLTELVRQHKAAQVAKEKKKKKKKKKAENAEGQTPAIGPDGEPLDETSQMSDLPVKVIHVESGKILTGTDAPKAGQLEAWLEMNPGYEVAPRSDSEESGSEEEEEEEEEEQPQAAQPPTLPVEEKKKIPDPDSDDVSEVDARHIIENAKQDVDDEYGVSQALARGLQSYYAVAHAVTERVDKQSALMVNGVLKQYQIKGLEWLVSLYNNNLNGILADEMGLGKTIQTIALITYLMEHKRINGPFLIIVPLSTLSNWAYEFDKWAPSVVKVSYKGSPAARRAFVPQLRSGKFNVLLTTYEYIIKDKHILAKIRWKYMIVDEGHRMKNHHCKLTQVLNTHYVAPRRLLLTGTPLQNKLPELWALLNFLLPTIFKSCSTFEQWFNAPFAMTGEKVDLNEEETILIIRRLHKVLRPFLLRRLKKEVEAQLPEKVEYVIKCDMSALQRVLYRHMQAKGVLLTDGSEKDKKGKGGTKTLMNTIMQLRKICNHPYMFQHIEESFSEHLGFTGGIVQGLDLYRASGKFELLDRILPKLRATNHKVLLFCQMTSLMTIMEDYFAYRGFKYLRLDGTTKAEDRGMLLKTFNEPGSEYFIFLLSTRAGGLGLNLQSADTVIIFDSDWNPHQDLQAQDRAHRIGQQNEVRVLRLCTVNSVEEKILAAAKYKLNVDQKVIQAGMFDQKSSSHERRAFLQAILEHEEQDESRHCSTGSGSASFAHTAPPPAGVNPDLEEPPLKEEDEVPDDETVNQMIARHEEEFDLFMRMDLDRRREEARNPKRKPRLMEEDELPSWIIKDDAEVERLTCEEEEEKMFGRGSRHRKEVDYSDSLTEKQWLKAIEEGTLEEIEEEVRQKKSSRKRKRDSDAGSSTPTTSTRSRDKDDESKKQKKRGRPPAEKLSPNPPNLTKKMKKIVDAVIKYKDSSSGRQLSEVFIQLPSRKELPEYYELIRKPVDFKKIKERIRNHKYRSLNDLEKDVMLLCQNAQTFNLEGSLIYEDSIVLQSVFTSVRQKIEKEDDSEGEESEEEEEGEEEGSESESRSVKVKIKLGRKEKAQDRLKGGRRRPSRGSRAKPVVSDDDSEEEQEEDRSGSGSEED
# Sequence (P40337 whole entry): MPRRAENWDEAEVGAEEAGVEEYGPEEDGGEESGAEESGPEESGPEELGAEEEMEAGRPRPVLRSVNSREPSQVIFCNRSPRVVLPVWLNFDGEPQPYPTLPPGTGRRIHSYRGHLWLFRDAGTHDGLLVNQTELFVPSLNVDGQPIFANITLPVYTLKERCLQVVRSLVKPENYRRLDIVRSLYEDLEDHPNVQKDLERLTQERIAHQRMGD
# ASSAY_METHOD_TEXT: PROTAC activity at VHL/ BRG1 in human SW1573 cells assessed as induction of BRG1 degradation incubated for 22 hrs by Western blotting analysis
# Assay type: cell-based
Quick reminder: number only, in nM, skip the unit.

# get_value(readout='DC50', item= Cc1ncsc1-c1ccc([C@H](C)NC(=O)[C@@H]2C[C@@H](O)CN2C(=O)[C@@H](c2cc(OCC#Cc3ccc(O[C@H]4C[C@H](Oc5cc(N6C7CCC6CN(c6cc(-c8ccccc8O)nnc6N)C7)ccn5)C4)cn3)no2)C(C)C)cc1 )
5.1

# get_value(readout='DC50', item= Cc1ncsc1-c1ccc([C@H](C)NC(=O)[C@@H]2C[C@@H](O)CN2C(=O)[C@@H](c2cc(OCCN3CCN(CCOc4cc(N5C6CCC5CN(c5cc(-c7ccccc7O)nnc5N)C6)ccn4)[C@H](C)C3)no2)C(C)C)cc1 )
0.71

====

# ASSAY_METHOD_TEXT: Clearance in CD-1 mouse at 30 mg/kg, iv measured for 24 hrs
# Format: ADME, organism-based
# CONDITION_INFO: in vivo
ASSAY_READOUT: clearance

# get_value(readout='clearance', item= Cc1ncsc1-c1ccc([C@H](C)NC(=O)[C@@H]2C[C@@H](O)CN2C(=O)[C@@H](c2cc(N3CCC(CN4CCC(O[C@H]5C[C@H](Oc6cc(N7C8CCC7CN(c7cc(-c9ccccc9O)nnc7N)C8)ccn6)C5)CC4)CC3)no2)C(C)C)cc1 )
15 mL/min/kg

====

# ASSAY_METHOD_TEXT: Volume of distribution in CD-1 mouse at 10 mg/kg, iv measured for 24 hrs
# Assay type: ADME, organism-based
# CONDITION_INFO: in vivo
ASSAY_READOUT: Vd (L/kg)
Quick reminder: number only, in L/kg, skip the unit.

# get_value(readout='Vd', item= Cc1ncsc1-c1ccc([C@H](C)NC(=O)[C@@H]2C[C@@H](O)CN2C(=O)[C@@H](c2cc(N3CCC(CN4CCC(O[C@H]5C[C@H](Oc6cc(N7C8CCC7CN(c7cc(-c9ccccc9O)nnc7N)C8)ccn6)C5)CC4)CC3)no2)C(C)C)cc1 )
6.3

====

# TARGET_OF_ASSAY: von Hippel-Lindau disease tumor suppressor/SWI/SNF-related matrix-associated actin-dependent regulator of chromatin subfamily A member 2 (Homo sapiens, UniProt P51531+P40337)
# Sequence (P51531 whole entry): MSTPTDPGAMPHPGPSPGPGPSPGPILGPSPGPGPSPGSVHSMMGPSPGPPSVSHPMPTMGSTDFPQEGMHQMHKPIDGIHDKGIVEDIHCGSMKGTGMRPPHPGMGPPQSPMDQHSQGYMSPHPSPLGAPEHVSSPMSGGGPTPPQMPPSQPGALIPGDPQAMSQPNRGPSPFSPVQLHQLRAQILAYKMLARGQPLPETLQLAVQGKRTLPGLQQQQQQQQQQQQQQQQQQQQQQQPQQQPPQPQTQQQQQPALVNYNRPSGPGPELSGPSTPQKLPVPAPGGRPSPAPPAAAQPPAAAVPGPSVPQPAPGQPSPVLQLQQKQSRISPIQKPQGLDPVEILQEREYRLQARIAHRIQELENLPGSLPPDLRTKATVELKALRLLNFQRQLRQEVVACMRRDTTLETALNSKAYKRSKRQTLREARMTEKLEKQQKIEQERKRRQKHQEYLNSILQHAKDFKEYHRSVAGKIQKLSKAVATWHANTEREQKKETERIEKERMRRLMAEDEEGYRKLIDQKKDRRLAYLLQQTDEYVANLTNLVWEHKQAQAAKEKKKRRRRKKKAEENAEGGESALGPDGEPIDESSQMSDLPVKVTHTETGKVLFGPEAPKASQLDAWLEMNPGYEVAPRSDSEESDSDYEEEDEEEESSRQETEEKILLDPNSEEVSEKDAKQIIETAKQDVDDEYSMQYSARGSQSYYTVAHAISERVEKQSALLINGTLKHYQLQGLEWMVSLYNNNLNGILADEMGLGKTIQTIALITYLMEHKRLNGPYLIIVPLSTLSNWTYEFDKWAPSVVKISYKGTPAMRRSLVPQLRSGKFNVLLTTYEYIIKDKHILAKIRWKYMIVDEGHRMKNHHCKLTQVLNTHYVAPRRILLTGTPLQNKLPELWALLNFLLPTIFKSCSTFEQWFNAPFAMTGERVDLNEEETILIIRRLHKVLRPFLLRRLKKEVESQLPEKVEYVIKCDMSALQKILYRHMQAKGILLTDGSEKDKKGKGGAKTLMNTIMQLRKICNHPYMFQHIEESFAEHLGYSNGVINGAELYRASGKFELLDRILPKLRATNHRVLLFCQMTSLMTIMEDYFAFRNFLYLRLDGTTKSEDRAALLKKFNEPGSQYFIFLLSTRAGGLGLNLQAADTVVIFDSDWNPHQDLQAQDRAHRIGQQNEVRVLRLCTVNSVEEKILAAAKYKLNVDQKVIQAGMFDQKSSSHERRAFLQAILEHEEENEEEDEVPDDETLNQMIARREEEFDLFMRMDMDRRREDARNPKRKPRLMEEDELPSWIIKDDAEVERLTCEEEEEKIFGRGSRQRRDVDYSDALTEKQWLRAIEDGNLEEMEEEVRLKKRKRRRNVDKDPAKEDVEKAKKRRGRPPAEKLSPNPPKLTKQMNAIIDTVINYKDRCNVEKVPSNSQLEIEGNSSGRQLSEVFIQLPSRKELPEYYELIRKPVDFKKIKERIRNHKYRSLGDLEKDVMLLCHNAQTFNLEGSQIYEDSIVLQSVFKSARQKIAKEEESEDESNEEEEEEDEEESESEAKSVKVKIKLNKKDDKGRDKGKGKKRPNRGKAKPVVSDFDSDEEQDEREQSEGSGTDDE
# Sequence (P40337 whole entry): as the sequence (P40337 whole entry) above
# ASSAY_METHOD_TEXT: PROTAC activity at VHL/BRM in human SW1573 cells assessed as induction of […] incubated for 22 hrs by Western blotting analysis
# Type: cell-based
Please provide measured log10(DC50) for the entries that follow.
Please interpret these as log10 of DC50 where DC50 is in nM.

# get_value(readout='log10(DC50)', item= Cc1ncsc1-c1ccc([C@H](C)NC(=O)[C@@H]2C[C@@H](O)CN2C(=O)[C@@H](c2cc(N3CCN(CC4CCN(C[C@H]5C[C@H](Oc6cc(N7C8CCC7CN(c7cc(-c9ccccc9O)nnc7N)C8)ccn6)C5)CC4)CC3)no2)C(C)C)cc1 )
-1.21

# get_value(readout='log10(DC50)', item= Cc1ncsc1-c1ccc(CNC(=O)[C@@H]2C[C@@H](O)CN2C(=O)[C@@H](NC(=O)COCCOCCOCCOc2cc(N3C4CCC3CN(c3cc(-c5ccccc5O)nnc3N)C4)ccn2)C(C)(C)C)cc1 )
1.51

# get_value(readout='log10(DC50)', item= Cc1ncsc1-c1ccc([C@H](C)NC(=O)[C@@H]2C[C@@H](O)CN2C(=O)[C@@H](c2cc(N3CCN(C[C@H]4C[C@H](Oc5cc(N6C7CCC6CN(c6cc(-c8ccccc8O)nnc6N)C7)ccn5)C4)CC3)no2)C(C)C)cc1 )
-1.05

# get_value(readout='log10(DC50)', item= Cc1ncsc1-c1ccc([C@H](C)NC(=O)[C@@H]2C[C@@H](O)CN2C(=O)[C@@H](c2cc(OCCN3CCN(CCOc4cc(N5C6CCC5CN(c5cc(-c7ccccc7O)nnc5N)C6)ccn4)C[C@@H]3C)no2)C(C)C)cc1 )
-0.96

# get_value(readout='log10(DC50)', item= Cc1ncsc1-c1ccc(CNC(=O)[C@@H]2C[C@@H](O)CN2C(=O)[C@@H](c2cc(OCCN3CCN(CCOc4cc(N5C6CCC5CN(c5cc(-c7ccccc7O)nnc5N)C6)ccn4)CC3)no2)C(C)C)cc1 )
-0.41

# get_value(readout='log10(DC50)', item= Cc1ncsc1-c1ccc([C@H](C)NC(=O)[C@@H]2C[C@@H](O)CN2C(=O)[C@@H](c2cc(OCCN3CCN(CCOc4cc(N5C6CCC5CN(c5cc(-c7ccccc7O)nnc5N)C6)ccn4)CC3)no2)C(C)C)cc1 )
-1.17

# get_value(readout='log10(DC50)', item= Cc1ncsc1-c1ccc([C@H](C)NC(=O)[C@@H]2C[C@@H](O)CN2C(=O)[C@@H](c2cc(OCC#Cc3ccc(O[C@H]4C[C@H](Oc5cc(N6C7CCC6CN(c6cc(-c8ccccc8O)nnc6N)C7)ccn5)C4)cn3)no2)C(C)C)cc1 )
1.43

# get_value(readout='log10(DC50)', item= Cc1ncsc1-c1ccc([C@H](C)NC(=O)[C@@H]2C[C@@H](O)CN2C(=O)[C@@H](c2cc(N3CCN(CCN4CCC(O[C@H]5C[C@H](Oc6cc(N7C8CCC7CN(c7cc(-c9ccccc9O)nnc7N)C8)ccn6)C5)CC4)CC3)no2)C(C)C)cc1 )
-1.07

# get_value(readout='log10(DC50)', item= Cc1ncsc1-c1ccc(CNC(=O)[C@@H]2C[C@@H](O)CN2C(=O)[C@@H](c2cc(OCCOCCOCCOc3cc(N4C5CCC4CN(c4cc(-c6ccccc6O)nnc4N)C5)ccn3)no2)C(C)C)cc1 )
-0.12

# get_value(readout='log10(DC50)', item= Cc1ncsc1-c1ccc([C@H](C)NC(=O)[C@@H]2C[C@@H](O)CN2C(=O)[C@@H](c2cc(N3CCC(CN4CCC(Oc5cc(N6C7CCC6CN(c6cc(-c8ccccc8O)nnc6N)C7)ccn5)CC4)CC3)no2)C(C)C)cc1 )
-1.28

# get_value(readout='log10(DC50)', item= Cc1ncsc1-c1ccc([C@H](C)NC(=O)[C@@H]2C[C@@H](O)CN2C(=O)[C@@H](c2cc(OCCN3CCN(CCOc4cc(N5C6CCC5CN(c5cc(-c7ccccc7O)nnc5N)C6)ccn4)[C@H](C)C3)no2)C(C)C)cc1 )
-1.26

# get_value(readout='log10(DC50)', item= Cc1ncsc1-c1ccc([C@H](C)NC(=O)[C@@H]2C[C@@H](O)CN2C(=O)[C@@H](c2cc(N3CCC(O[C@H]4C[C@H](Oc5cc(N6C7CCC6CN(c6cc(-c8ccccc8O)nnc6N)C7)ccn5)C4)CC3)no2)C(C)C)cc1 )
-0.85

====

# ASSAY_METHOD_TEXT: Drug concentration in mouse plasma measured for 24 hrs
# Type: ADME, cell-free
ASSAY_READOUT: concentration at 24 h (nM)
Quick reminder: number only, in nM, skip the unit.

# get_value(readout='concentration at 24 h', item= Cc1ncsc1-c1ccc([C@H](C)NC(=O)[C@@H]2C[C@@H](O)CN2C(=O)[C@@H](c2cc(OCCN3CCC(O[C@H]4C[C@H](Oc5cc(N6C7CCC6CN(c6cc(-c8ccccc8O)nnc6N)C7)ccn5)C4)CC3)no2)C(C)C)cc1 )
26

# get_value(readout='concentration at 24 h', item= Cc1ncsc1-c1ccc([C@H](C)NC(=O)[C@@H]2C[C@@H](O)CN2C(=O)[C@@H](c2cc(N3CCC(O[C@H]4C[C@H](Oc5cc(N6C7CCC6CN(c6cc(-c8ccccc8O)nnc6N)C7)ccn5)C4)CC3)no2)C(C)C)cc1 )
112

# get_value(readout='concentration at 24 h', item= Cc1ncsc1-c1ccc([C@H](C)NC(=O)[C@@H]2C[C@@H](O)CN2C(=O)[C@@H](c2cc(OCC#Cc3ccc(O[C@H]4C[C@H](Oc5cc(N6C7CCC6CN(c6cc(-c8ccccc8O)nnc6N)C7)ccn5)C4)cn3)no2)C(C)C)cc1 )
129

# get_value(readout='concentration at 24 h', item= Cc1ncsc1-c1ccc([C@H](C)NC(=O)[C@@H]2C[C@@H](O)CN2C(=O)[C@@H](c2cc(N3CCC(CN4CCC(O[C@H]5C[C@H](Oc6cc(N7C8CCC7CN(c7cc(-c9ccccc9O)nnc7N)C8)ccn6)C5)CC4)CC3)no2)C(C)C)cc1 )
71
